So I've got a bunch of compounds here, and I need their CC50 values.
Test system: CCRF-SB
Experiment: Cytotoxicity against human CCRF-SB cells after 96 hrs by MTT assay
Type: functional
One number for each entry, in µM.

I would be grateful if you could provide CC50 for each of the following entries.
1. FC(F)(F)c1cccc(NC(S)=Nc2ccc(Cl)c(Cl)c2)c1
2. FC(F)(F)c1cccc(NC(=S)Nc2ccc(I)cc2)c1
3. FC(F)(F)c1cccc(NC(=S)Nc2cccc(Br)c2)c1

8.8
9.1
9

* * *

Experiment: Cytotoxicity against BHK cells assessed as cell viability after 48 to 96 hrs by MTT assay
Assay type: cell-based, Mesocricetus auratus
Details: hamster
So I've got a bunch of compounds here, and I need their CC50 values.

Guide cases for CC50, answers given:
{"compound": "CC(=O)NC(=S)Nc1cccc(C(F)(F)F)c1", "CC50": "> 100 µM"}
{"compound": "C[C@@]1(O)[C@H](O)[C@@H](CO)O[C@H]1n1cnc2c(=O)[nH]c(N)nc21 [2'-B-METHYL-GUANOSINE]", "CC50": "> 100 µM"}

Recorded result, FC(F)(F)c1cccc(NC(S)=NCCN2CCOCC2)c1 , CC50: > 100 µM

* * *

Tested on: Bacillus cereus
Assay: Antimicrobial activity against Bacillus cereus ATCC 11778 at 400 ug after 18 hrs by disc-diffusion method
Format: functional
Conditions: ATCC 11778, 18 h, read-out: IZ
So I've got a bunch of molecules here, and I need their zone of inhibition at 400 µg/disc values.
Numbers only, in mm.

Guide cases for zone of inhibition at 400 µg/disc, answers given:
{"chem smiles": "COc1cccc(NC(=S)Nc2cccc(C(F)(F)F)c2)c1", "reported measurement": 19}
{"chem smiles": "O=C(O)c1cn(C2CC2)c2cc(N3CCNCC3)c(F)cc2c1=O", "reported measurement": 30}
{"chem smiles": "FC(F)(F)c1cccc(NC(S)=Nc2ccc(Cl)c(Cl)c2)c1", "reported measurement": 13}

Let us move to another entry and its zone of inhibition at 400 µg/disc.
Recorded result, FC(F)(F)c1cccc(NC(=S)Nc2ccccc2)c1 , zone of inhibition at 400 µg/disc: 22

* * *

Test system: Enterococcus faecalis
Test: Antimicrobial activity against Enterococcus faecalis ATCC 29212 at 400 ug after 18 hrs by disc-diffusion method
Assay type: functional
Conditions: ATCC 29212, 18 h, read-out: IZ
readout label: zone of inhibition at 400 µg/disc (mm)
Answers are plain numbers, in mm.

Guide cases for zone of inhibition at 400 µg/disc, answers given:
{"chem smiles": "Fc1ccc(NC(=S)Nc2cccc(C(F)(F)F)c2)cc1", "system name": "Enterococcus faecalis", "zone of inhibition at 400 µg/disc [mm]": 20}
{"chem smiles": "CSCCCNC(=S)Nc1cccc(C(F)(F)F)c1", "system name": "Enterococcus faecalis", "zone of inhibition at 400 µg/disc [mm]": 13}
{"chem smiles": "FC(F)(F)c1cccc(NC(=S)Nc2ccccc2)c1", "system name": "Enterococcus faecalis", "zone of inhibition at 400 µg/disc [mm]": 15}
{"chem smiles": "COc1cccc(NC(=S)Nc2cccc(C(F)(F)F)c2)c1", "system name": "Enterococcus faecalis", "zone of inhibition at 400 µg/disc [mm]": 13}

Let us move to another entry and its zone of inhibition at 400 µg/disc.
Recorded result, FC(F)(F)c1cccc(NC(S)=Nc2ccc(Cl)c(Cl)c2)c1 , zone of inhibition at 400 µg/disc: 12

* * *

So I've got a bunch of compounds here, and I need their EC50 values.
Assay: Antiviral activity against Bovine viral diarrhea virus 1-NADL ATCC VR-534 infected in MDBK cells assessed as protection against virus-induced cytopathogenicity after 3 to 4 days by MTT assay
Assay type: functional, cell-based
Settings: Bovine viral diarrhea virus isolates and strains, ATCC VR-534, MDBK

Guide cases for EC50, answers given:
{"compound": "N#Cc1ccc(NC(=S)Nc2cccc(C(F)(F)F)c2)cc1", "EC50": "> 10 µM"}
{"compound": "C[C@@]1(O)[C@H](O)[C@@H](CO)O[C@H]1n1cnc2c(=O)[nH]c(N)nc21 [2'-B-METHYL-GUANOSINE]", "EC50": "1.1 µM"}
{"compound": "O=[N+]([O-])c1ccc(NC(=S)Nc2cccc(C(F)(F)F)c2)cc1", "EC50": "> 10 µM"}
{"compound": "Fc1cccc(NC(=S)Nc2cccc(C(F)(F)F)c2)c1", "EC50": "> 10 µM"}
{"compound": "COC(=O)c1ccccc1NC(=S)Nc1cccc(C(F)(F)F)c1", "EC50": "> 100 µM"}
{"compound": "COc1cccc(NC(=S)Nc2cccc(C(F)(F)F)c2)c1", "EC50": "> 52 µM"}

Let us move to another entry and its EC50.
Recorded result, FC(F)(F)c1cccc(NC(S)=Nc2ccc(Cl)c(Cl)c2)c1 , EC50: > 10 µM

* * *

So I've got a bunch of compounds here, and I need their CC50 values.
Assay: Cytotoxicity against African green monkey Vero 76 cells assessed as cell viability after 48 to 96 hrs by crystal violet staining
Format: cell-based
Details: chlorocebus sabaeus

Guide cases for CC50, answers given:
{"chem smiles": "CC(=O)NC(=S)Nc1cccc(C(F)(F)F)c1", "readout label": "CC50", "reported measurement": "> 100 µM"}
{"chem smiles": "COC(=O)c1ccccc1NC(=S)Nc1cccc(C(F)(F)F)c1", "readout label": "CC50", "reported measurement": "> 100 µM"}
{"chem smiles": "O=c1cnn([C@@H]2O[C@H](CO)[C@@H](O)[C@H]2O)c(=O)[nH]1", "readout label": "CC50", "reported measurement": "12 µM"}
{"chem smiles": "COc1cccc(NC(=S)Nc2cccc(C(F)(F)F)c2)c1", "readout label": "CC50", "reported measurement": "20 µM"}
{"chem smiles": "COc1c(C)c2c(c(O)c1C/C=C(\\C)CCC(=O)O)C(=O)OC2", "readout label": "CC50", "reported measurement": "> 100 µM"}
{"chem smiles": "FC(F)(F)c1cccc(NC(=S)Nc2ccc(Cl)c(Cl)c2)c1", "readout label": "CC50", "reported measurement": "16 µM"}

I would be grateful if you could provide CC50 for each of the following entries.
1. FC(F)(F)c1cccc(NC(=S)Nc2ccc(Cl)cc2)c1
2. O=C(NC(=S)Nc1cccc(C(F)(F)F)c1)c1ccccc1

1: 11 µM; 2: > 100 µM

* * *

System: Micrococcus luteus
Assay: Antimicrobial activity against Micrococcus luteus ATCC 10240 at 400 ug after 18 hrs by disc-diffusion method
Type: functional
Conditions: ATCC 10240, 18 h, read-out: IZ
So I've got a bunch of compounds here, and I need their zone of inhibition at 400 µg/disc values.
Returns: string containing the number followed by the unit.

Guide cases for zone of inhibition at 400 µg/disc, answers given:
{"chem smiles": "COC(=O)c1ccccc1NC(=S)Nc1cccc(C(F)(F)F)c1", "zone of inhibition at 400 µg/disc": "24 mm"}
{"chem smiles": "C=C(C)CNC(=S)Nc1cccc(C(F)(F)F)c1", "zone of inhibition at 400 µg/disc": "16 mm"}
{"chem smiles": "Fc1ccccc1NC(=S)Nc1cccc(C(F)(F)F)c1", "zone of inhibition at 400 µg/disc": "23 mm"}
{"chem smiles": "O=C(NC(=S)Nc1cccc(C(F)(F)F)c1)c1ccccc1", "zone of inhibition at 400 µg/disc": "19 mm"}
{"chem smiles": "O=[N+]([O-])c1ccc(NC(=S)Nc2cccc(C(F)(F)F)c2)cc1", "zone of inhibition at 400 µg/disc": "13 mm"}
{"chem smiles": "FC(F)(F)c1cccc(NC(=S)Nc2cccc(Br)c2)c1", "zone of inhibition at 400 µg/disc": "30 mm"}

Recorded result, COc1cccc(NC(=S)Nc2cccc(C(F)(F)F)c2)c1 , zone of inhibition at 400 µg/disc: 19 mm

* * *

Test system: Staphylococcus aureus
Test: Antimicrobial activity against Staphylococcus aureus ATCC 29213 after 18 hrs by twofold serial microdilution method
Assay type: functional
Settings: ATCC 29213, 18 h
// classify: if (MIC < 8 µg/mL) Satisfied else Not satisfied

{"molecule": "COc1cccc(NC(=S)Nc2cccc(C(F)(F)F)c2)c1", "system name": "Staphylococcus aureus", "class label": "Not satisfied"}

Determine if COC(=O)c1ccccc1NC(=S)Nc1cccc(C(F)(F)F)c1 shows MIC strictly lower than 8 µg/mL. Not satisfied

Determine if O=C(NC(=S)Nc1cccc(C(F)(F)F)c1)c1ccccc1 shows MIC strictly lower than 8 µg/mL. Not satisfied

Determine if Fc1ccccc1NC(=S)Nc1cccc(C(F)(F)F)c1 shows MIC strictly lower than 8 µg/mL. Not satisfied

Determine if FC(F)(F)c1cccc(NC(=S)Nc2ccccc2)c1 shows MIC strictly lower than 8 µg/mL. Not satisfied

Determine if Fc1ccc(NC(=S)Nc2cccc(C(F)(F)F)c2)cc1Cl shows MIC strictly lower than 8 µg/mL. Satisfied

Determine if CCNC(=S)Nc1cccc(C(F)(F)F)c1 shows MIC strictly lower than 8 µg/mL. Not satisfied

Determine if FC(F)(F)c1cccc(NC(S)=Nc2ccc(Cl)c(Cl)c2)c1 shows MIC strictly lower than 8 µg/mL. Satisfied

Determine if N#Cc1ccc(NC(=S)Nc2cccc(C(F)(F)F)c2)cc1 shows MIC strictly lower than 8 µg/mL. Not satisfied

Determine if O=C(O)c1cn(C2CC2)c2cc(N3CCNCC3)c(F)cc2c1=O [CIPROFLOXACIN] shows MIC strictly lower than 8 µg/mL. Satisfied

FYI, the data here is from ChEMBL document CHEMBL3616436.
